Data provenance is the kinase profiling compilation of Christmann-Franck et al. (2016).

Biological target: UniProt Q13464
Sequence (Q13464 whole entry, looked up): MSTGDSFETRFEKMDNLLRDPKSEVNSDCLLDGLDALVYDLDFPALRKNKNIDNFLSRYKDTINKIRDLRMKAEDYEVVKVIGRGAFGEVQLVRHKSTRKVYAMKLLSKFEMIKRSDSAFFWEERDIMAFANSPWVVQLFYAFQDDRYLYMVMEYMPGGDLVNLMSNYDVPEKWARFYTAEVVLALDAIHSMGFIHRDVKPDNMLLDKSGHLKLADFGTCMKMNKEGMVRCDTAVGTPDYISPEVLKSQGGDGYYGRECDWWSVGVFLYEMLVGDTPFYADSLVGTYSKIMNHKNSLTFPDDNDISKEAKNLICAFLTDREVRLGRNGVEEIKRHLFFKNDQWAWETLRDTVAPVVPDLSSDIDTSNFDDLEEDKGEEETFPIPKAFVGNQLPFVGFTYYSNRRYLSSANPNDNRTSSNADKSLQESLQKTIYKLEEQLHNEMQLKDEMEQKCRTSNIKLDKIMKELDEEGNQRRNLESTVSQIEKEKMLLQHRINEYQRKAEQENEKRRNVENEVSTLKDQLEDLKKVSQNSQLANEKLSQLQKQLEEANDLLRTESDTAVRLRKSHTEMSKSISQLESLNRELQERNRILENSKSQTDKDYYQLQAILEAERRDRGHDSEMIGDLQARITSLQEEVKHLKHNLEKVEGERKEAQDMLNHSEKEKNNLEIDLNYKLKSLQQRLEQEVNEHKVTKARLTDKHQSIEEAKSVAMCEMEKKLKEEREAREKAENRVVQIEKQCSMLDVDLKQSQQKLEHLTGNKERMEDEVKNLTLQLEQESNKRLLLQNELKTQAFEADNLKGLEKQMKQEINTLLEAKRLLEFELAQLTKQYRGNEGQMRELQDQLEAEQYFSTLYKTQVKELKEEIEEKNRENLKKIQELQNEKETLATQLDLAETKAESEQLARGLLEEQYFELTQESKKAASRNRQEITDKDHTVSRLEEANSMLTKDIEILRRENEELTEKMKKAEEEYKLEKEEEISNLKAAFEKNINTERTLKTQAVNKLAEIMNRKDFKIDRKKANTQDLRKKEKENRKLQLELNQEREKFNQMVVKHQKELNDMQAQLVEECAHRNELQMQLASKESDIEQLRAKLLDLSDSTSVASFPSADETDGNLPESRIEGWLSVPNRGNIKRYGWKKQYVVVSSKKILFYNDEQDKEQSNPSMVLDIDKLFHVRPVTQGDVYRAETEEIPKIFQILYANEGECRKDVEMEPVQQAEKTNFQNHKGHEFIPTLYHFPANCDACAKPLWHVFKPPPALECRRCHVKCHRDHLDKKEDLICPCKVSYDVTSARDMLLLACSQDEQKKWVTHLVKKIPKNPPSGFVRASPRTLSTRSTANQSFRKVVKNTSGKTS
Test: KINOMEscan competition binding
Details: compound 10.0 µM
EXPERIMENTAL ENDPOINT: kinase still bound, per cent of control (%)
Respond with the bare value in %.

Worked cases, answers included:
COc1cc(N2CCN(C)CC2)ccc1Nc1ncc2c(n1)N(C)c1ccccc1C(=O)N2C | 100
CN(C)C/C=C/C(=O)Nc1ccc(C(=O)Nc2cccc(Nc3nccc(-c4cccnc4)n3)c2)cc1 | 48
O=C1NC(=O)/C(=C/c2ccc3nccc(-c4ccncc4)c3c2)S1 | 51
COc1cc(C(=O)N2CCC(N3CCN(C)CC3)CC2)ccc1Nc1ncc2c(n1)N(C)c1ccccc1C(=O)N2C | 100
COc1cc2ncnc(-n3nc(-c4ccccn4)nc3N)c2cc1OC | 21
CNC(=O)c1cc(Oc2ccc(NC(=O)Nc3ccc(Cl)c(C(F)(F)F)c3)cc2)ccn1 | 74
CCN(CC)CCCCNc1ncc2c(n1)N(C)C(=O)N(c1c(Cl)c(OC)cc(OC)c1Cl)C2 | 100
O=c1cc(N2CCOCC2)oc2c(-c3cccc4c3sc3ccccc34)cccc12 | 100

// next item, kinase still bound, per cent of control requested
Problem: Can you look up the measured kinase still bound, per cent of control of `CS(=O)(=O)N1CCN(Cc2cc3nc(-c4cccc5[nH]ncc45)nc(N4CCOCC4)c3s2)CC1` for me?
Solution: 100
